Species on record: Rattus norvegicus
testProtocol: Open TG-GATES - Regimen: Daily Repeat
Assay type: toxicity, organism-based, Sprague-Dawley
Design: regimen Daily Repeat, gender Male, age 6 weeks
cond: in vivo, po, 0 mg/kg, 72 h, tissue Plasma, route gavage, dose level Control, time 3 day
Label T for high-side ALT (at or above 40 IU/L) and F for low-side ALT (below it).

| compound | classLabel |
| --- | --- |
| C=C(C)[C@H]1Cc2c(ccc3c2O[C@@H]2COc4cc(OC)c(OC)cc4[C@@H]2C3=O)O1 | F |

input: Could you please find out whether Cc1cccc(C)c1OCC(C)N (centres undefined) has ALT that meets 40 IU/L or exceeds it?
output: T

###

Species: Rattus norvegicus
testProtocol: Open TG-GATES - Regimen: Daily Repeat
Assay type: toxicity, organism-based, Sprague-Dawley
Parameters: regimen Daily Repeat, gender Male, age 6 weeks
cond: in vivo, po, 0 mg/kg, […], tissue Blood, route gavage, dose level Control, time 28 day
assayReadout: Neu (%)
Hi! Could you send only the number? It should be in %, unit omitted.

input: Entry C=C(C)[C@H]1Cc2c(ccc3c2O[C@@H]2COc4cc(OC)c(OC)cc4[C@@H]2C3=O)O1 has what Neu?
output: 19.8

input: # get_value(readout='Neu', item= O=[N+]([O-])c1ccc(O)c([N+](=O)[O-])c1 )
output: 15.4

###

Species on record: Rattus norvegicus
testProtocol: Open TG-GATES - Regimen: Daily Repeat
Format: toxicity, organism-based, Sprague-Dawley
Parameters: regimen Daily Repeat, gender Male, age 6 weeks
cond: in vivo, po, 0 mg/kg, […], tissue Kidney, route gavage, dose level Control, time 7 day
assayReadout: KIDNEY_L (g)
Answer with a number only, understood to be in g.

Recorded KIDNEY_L, per entry:
| molecule | KIDNEY_L, g |
| --- | --- |
| OCCN1CCN(CCCN2c3ccccc3Sc3ccc(C(F)(F)F)cc32)CC1 [FLUPHENAZINE] | 1.2 |
| O=C1CN(/N=C/c2ccc([N+](=O)[O-])o2)C(=O)N1 [NITROFURANTOIN] | 1.2 |
| Cc1cccc(C)c1OCC(C)N (stereo unspecified) [MEXILETINE] | 1.2 |
| C[C@H]1O[C@H](O[C@H]2[C@H](O)[C@@H](O)[C@@H](O[C@H]3[C@H](O)[C@@H](O)C(O)O[C@@H]3CO)O[C@@H]2CO)[C@H](O)[C@@H](O)[C@@H]1N[C@H]1C=C(CO)[C@@H](O)[C@H](O)[C@H]1O (stereo partly specified) [ACARBOSE] | 1.1 |
| CCOC(=O)C(C)(C)Oc1ccc(Cl)cc1 [CLOFIBRATE] | 1.1 |

Let us move to another entry and its KIDNEY_L.
input: Using the record for C[C@H]1C(=O)O[C@@H]2CCN3CC=C(COC(=O)[C@](C)(O)[C@]1(C)O)[C@H]23 [MONOCROTALINE] , report its KIDNEY_L.
output: 1.1

###

Organism: Rattus norvegicus
testProtocol: Open TG-GATES - Regimen: Single
Assay type: toxicity, organism-based, Sprague-Dawley
Design: regimen Single, gender Male, age 6 weeks
cond: in vivo, po, 0 mg/kg, 3 h, tissue Blood, route gavage, dose level Control
Recorded Eos by entry
A number alone suffices; assume %.

Worked cases, Eos given:
| compound | measurement |
| --- | --- |
| C[C@H]1C(=O)O[C@@H]2CCN3CC=C(COC(=O)[C@](C)(O)[C@]1(C)O)[C@H]23 [MONOCROTALINE] | 0.8 |
| CCOC(=O)C(C)(C)Oc1ccc(Cl)cc1 [CLOFIBRATE] | 0.8 |
| C[C@H]1O[C@H](O[C@H]2[C@H](O)[C@@H](O)[C@@H](O[C@H]3[C@H](O)[C@@H](O)C(O)O[C@@H]3CO)O[C@@H]2CO)[C@H](O)[C@@H](O)[C@@H]1N[C@H]1C=C(CO)[C@@H](O)[C@H](O)[C@H]1O (some centres undefined) [ACARBOSE] | 0.8 |
| Cc1cccc(C)c1OCC(C)N (centres undefined) [MEXILETINE] | 0.8 |
| C=C(C)[C@H]1Cc2c(ccc3c2O[C@@H]2COc4cc(OC)c(OC)cc4[C@@H]2C3=O)O1 [ROTENONE] | 1 |

input: Any idea what Eos was measured for O=[N+]([O-])c1ccc(O)c([N+](=O)[O-])c1 [2,4-DINITROPHENOL] ?
output: 0.8

input: Bench note: what Eos did Cn1cc[nH]c1=S [METHIMAZOLE] show?
output: 0.4

input: // returns reported Eos for input Cc1ccc2cc3c(ccc4ccccc43)c3c2c1CC3 [3-METHYLCHOLANTHRENE]
output: 0.6

input: Which Eos reading was recorded for the compound OCCN1CCN(CCCN2c3ccccc3Sc3ccc(C(F)(F)F)cc32)CC1 [FLUPHENAZINE] ?
output: 0.6

###

Species: Rattus norvegicus
testProtocol: Open TG-GATES - Regimen: Daily Repeat
Format: toxicity, organism-based, Sprague-Dawley
Set-up: regimen Daily Repeat, gender Male, age 6 weeks
cond: in vivo, po, 0 mg/kg, […], tissue Plasma, route gavage, dose level Control, time 7 day
assayReadout: PL (mg/dL)
Record the value in mg/dL, omitting the unit from your answer.

Observe how each entry below is paired with its result.
| molecule | PL, mg/dL |
| --- | --- |
| CCOC(=O)C(C)(C)Oc1ccc(Cl)cc1 [CLOFIBRATE] | 144.8 |
| OCCN1CCN(CCCN2c3ccccc3Sc3ccc(C(F)(F)F)cc32)CC1 [FLUPHENAZINE] | 156 |
| O=C1CN(/N=C/c2ccc([N+](=O)[O-])o2)C(=O)N1 [NITROFURANTOIN] | 166.8 |

input: I am curious: what PL value has been reported for O=[N+]([O-])c1ccc(O)c([N+](=O)[O-])c1 [2,4-DINITROPHENOL] ?
output: 154.8

input: Form field: reported PL of Cc1cccc(C)c1OCC(C)N (stereo not given) [MEXILETINE]
output: 152.6

###

Ht values by entry
Species: Rattus norvegicus
testProtocol: Open TG-GATES - Regimen: Daily Repeat
Assay type: toxicity, organism-based, Sprague-Dawley
Parameters: regimen Daily Repeat, gender Male, age 6 weeks
cond: in vivo, po, 0 mg/kg, […], tissue Blood, route gavage, dose level Control, time 28 day
State just the number; it will be interpreted in %.

| molecule | assayReadout | measurement |
| --- | --- | --- |
| O=[N+]([O-])c1ccc(O)c([N+](=O)[O-])c1 | Ht | 43.5 |
| O=C1CN(/N=C/c2ccc([N+](=O)[O-])o2)C(=O)N1 | Ht | 42.7 |
| CCOC(=O)C(C)(C)Oc1ccc(Cl)cc1 [CLOFIBRATE] | Ht | 43.2 |
| C=C(C)[C@H]1Cc2c(ccc3c2O[C@@H]2COc4cc(OC)c(OC)cc4[C@@H]2C3=O)O1 | Ht | 45 |
| C[C@H]1C(=O)O[C@@H]2CCN3CC=C(COC(=O)[C@](C)(O)[C@]1(C)O)[C@H]23 | Ht | 40.6 |
| Cn1cc[nH]c1=S | Ht | 42.9 |
| Cc1cccc(C)c1OCC(C)N (stereo not drawn) | Ht | 43.5 |

Please examine the following record next.
input: Which Ht reading was recorded for the molecule C[C@H]1O[C@H](O[C@H]2[C@H](O)[C@@H](O)[C@@H](O[C@H]3[C@H](O)[C@@H](O)C(O)O[C@@H]3CO)O[C@@H]2CO)[C@H](O)[C@@H](O)[C@@H]1N[C@H]1C=C(CO)[C@@H](O)[C@H](O)[C@H]1O (stereo partly drawn) ?
output: 45.7

###

Species: Rattus norvegicus
testProtocol: Open TG-GATES - Regimen: Daily Repeat
Type: toxicity, organism-based, Sprague-Dawley
Parameters: regimen Daily Repeat, gender Male, age 6 weeks
cond: in vivo, po, 0 mg/kg, […], tissue Blood, route gavage, dose level Control, time 14 day
assayReadout: Neu

Below are worked cases with known answers.
| compound | Neu |
| --- | --- |
| C[C@H]1O[C@H](O[C@H]2[C@H](O)[C@@H](O)[C@@H](O[C@H]3[C@H](O)[C@@H](O)C(O)O[C@@H]3CO)O[C@@H]2CO)[C@H](O)[C@@H](O)[C@@H]1N[C@H]1C=C(CO)[C@@H](O)[C@H](O)[C@H]1O (some centres undefined) | 20% |
| C=C(C)[C@H]1Cc2c(ccc3c2O[C@@H]2COc4cc(OC)c(OC)cc4[C@@H]2C3=O)O1 | 21% |
| O=[N+]([O-])c1ccc(O)c([N+](=O)[O-])c1 | 21% |

input: Bench note: what Neu did Cc1cccc(C)c1OCC(C)N (centres undefined) show?
output: 16.2%

###

Species: Rattus norvegicus
testProtocol: Open TG-GATES - Regimen: Daily Repeat
Assay type: toxicity, organism-based, Sprague-Dawley
Design: regimen Daily Repeat, gender Male, age 6 weeks
cond: in vivo, po, 0 mg/kg, […], tissue Plasma, route gavage, dose level Control, time 14 day
Note to self: values exactly at 200 mg/dL are label 1. So GLC at or above 200 mg/dL is label 1, below is label 0.

As a guide, the following entries are already answered.
| compound | classLabel |
| --- | --- |
| CCOC(=O)C(C)(C)Oc1ccc(Cl)cc1 [CLOFIBRATE] | label 1 |
| OCCN1CCN(CCCN2c3ccccc3Sc3ccc(C(F)(F)F)cc32)CC1 | label 0 |
| C=C(C)[C@H]1Cc2c(ccc3c2O[C@@H]2COc4cc(OC)c(OC)cc4[C@@H]2C3=O)O1 | label 0 |
| O=C1CN(/N=C/c2ccc([N+](=O)[O-])o2)C(=O)N1 | label 1 |
| Cn1cc[nH]c1=S | label 0 |

input: Can C[C@H]1O[C@H](O[C@H]2[C@H](O)[C@@H](O)[C@@H](O[C@H]3[C@H](O)[C@@H](O)C(O)O[C@@H]3CO)O[C@@H]2CO)[C@H](O)[C@@H](O)[C@@H]1N[C@H]1C=C(CO)[C@@H](O)[C@H](O)[C@H]1O (some centres undefined) be said to have GLC at or above 200 mg/dL?
output: label 0

input: Is GLC at least 200 mg/dL? Consider Cc1cccc(C)c1OCC(C)N (centres undefined)
output: label 1

input: GLC >= 200 mg/dL for O=[N+]([O-])c1ccc(O)c([N+](=O)[O-])c1 ?
output: label 0
